experiment: qHTS assay for small molecule activators of the nuclear factor-kappa B (NF-kB) signaling pathway (AID 651749); conditions: NF-kB-bla ME-180 cells, beta-lactamase FRET ratio, 16 h; stronger effect = higher value; further: % of control where 0% means no effect
Records with an inconclusive call do not appear.
Value Type: activation (%)
Provide the reading as a plain figure in %.

Take a look at these entries with their results.
CCCCCCC(O)CCCCCCCCCCC(=O)OC (stereo not drawn)
-0.158
O=C(OCCOCCOC(=O)c1ccccc1)c1ccccc1
0.298
CCSC(=O)N(CC(C)C)CC(C)C
-0.513
CC(=O)Nc1ccc(N=Nc2cc(C)ccc2O)cc1
-1.84
Cc1ccc(N=Nc2c(O)ccc3ccccc23)c(C)c1
6
CC(=O)N(CCN(C(C)=O)C(C)=O)C(C)=O
-1.08
CC(C)c1ccc2cc(C(C)C)ccc2c1
-0.342

Prompt: Recorded activation for Nc1nc(N)nc(-c2ccccc2)n1 , please?
Completion: 0.267

###

molecular target: Cytochrome P450 2C19 (Homo sapiens) (UniProt P33261); assay: qHTS Assay for Inhibitors and Substrates of Cytochrome P450 2C19 (AID 899); settings: recombinant CYP2C19, luciferin-H EGE luminescence; series mostly up to 11.4 µM; further: nearly all actives have a fitted effect of over 60% in size
Sequence (P33261 whole entry, looked up): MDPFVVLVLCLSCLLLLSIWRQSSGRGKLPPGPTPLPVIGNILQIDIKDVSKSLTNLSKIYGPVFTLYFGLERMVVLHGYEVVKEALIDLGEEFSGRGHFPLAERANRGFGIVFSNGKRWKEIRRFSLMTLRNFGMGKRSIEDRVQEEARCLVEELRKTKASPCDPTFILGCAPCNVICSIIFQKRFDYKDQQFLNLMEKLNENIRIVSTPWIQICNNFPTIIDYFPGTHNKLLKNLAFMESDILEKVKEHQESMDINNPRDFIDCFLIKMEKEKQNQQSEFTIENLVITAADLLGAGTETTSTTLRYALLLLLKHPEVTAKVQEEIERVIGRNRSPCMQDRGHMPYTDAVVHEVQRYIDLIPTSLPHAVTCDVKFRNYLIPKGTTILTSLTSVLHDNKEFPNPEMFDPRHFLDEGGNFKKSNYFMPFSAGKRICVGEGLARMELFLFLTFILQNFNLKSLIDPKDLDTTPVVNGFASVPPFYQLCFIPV
Inconclusive results are not listed. Activity calls are given as the source filed them. Calls come from the whole dose curve; as a rule, active = well fitted inhibition curve with a large enough effect; inconclusive = small, poorly fitted or top-dose-only effect; inactive = no such curve, though single readings can be large or run the other way.
Result category, one only: TRUE = active, FALSE = inactive

Answered examples (3):
O=C(O)C1Cc2c([nH]c3ccccc23)C(c2ccccc2)N1 (stereo not drawn)
FALSE
C=CCOC(=O)C(C(C)=O)C(NC(=O)OC)c1ccco1 (stereo not drawn)
FALSE
COC(=O)C1=C(C)N(Cc2ccccc2)C2=C(C(C)=O)C[C@@](O)(C(=O)OC)C(=O)N2C1c1ccccc1 (stereo partly drawn)
FALSE

Prompt: Just curious, what result did C=CCC1C=CC(Oc2ccc(F)cc2C)C(CO)O1 (stereo not drawn) get here?
Completion: TRUE

Prompt: Just curious, what result did CC(=O)OCC1OC(C#Cc2ccccc2Cl)C=CC1OC(C)=O (stereo not drawn) get here?
Completion: TRUE

Prompt: Just curious, what result did CC(=O)OCC1OC(C#Cc2ccc(Br)cc2)C=CC1OC(C)=O (stereo not drawn) get here?
Completion: FALSE

Prompt: Just curious, what result did COc1ccc(OC2C(O)COC2/C=C/C#Cc2ccc(F)cc2F)cc1 (stereo not drawn) get here?
Completion: FALSE

Prompt: Just curious, what result did C=CCOC(=O)C(C(C)=O)C(NC(=O)OC)c1cccc(C(F)(F)F)c1 (stereo not drawn) get here?
Completion: TRUE

###

target: Peroxisome proliferator-activated receptor alpha (Homo sapiens); experiment: qHTS assay for small molecule agonists of the peroxisome proliferator-activated receptor alpha (PPARalpha) signaling pathway (AID 651778); conditions: PathHunter PPARalpha complementation, chemiluminescence, 6 h; stronger effect = higher value; further: % of control where 0% means no effect
Value Type: max response (%)
Provide the reading as a plain figure in %.

CCCCCCCC[Si](Cl)(Cl)Cl
-0.623
O=[N+]([O-])c1ccc(O)cc1C(F)(F)F
-8.59

Prompt: Recorded max response for O=C(Cl)c1cccc(C(=O)Cl)c1 , please?
Completion: -0.213

###

experiment: qHTS assay for small molecule agonists of retinoid X receptor alpha signaling (AID 588544); conditions: HEK293T RXRa-UAS-bla, beta-lactamase reporter, 18 h; 530 nm emission
Inconclusive results are not listed.
Value Type: max response (%)
Provide the reading as a plain figure in %.

C=CCOC(=O)CC(C)C
-1.51

Prompt: Recorded max response for CCOC(=O)C(C)Oc1ccc(Oc2nc3ccc(Cl)cc3o2)cc1 (centres undefined) , please?
Completion: 11.3

Prompt: Recorded max response for CC1(C)C(=O)N(Br)C(=O)N1Br , please?
Completion: -13.9

Prompt: Recorded max response for CC1(C)CC(NCCCCCCNC2CC(C)(C)NC(C)(C)C2)CC(C)(C)N1 , please?
Completion: -2.83

Prompt: Recorded max response for Cc1ccc(N)c(S(=O)(=O)O)c1 , please?
Completion: -0.582

Prompt: Recorded max response for CC(Cl)(Cl)C(=O)OCCOc1cc(Cl)c(Cl)cc1Cl , please?
Completion: -6.02

Prompt: Recorded max response for CCCCC(CC)C(=O)OCCOCCOCCOC(=O)C(CC)CCCC (centres undefined) , please?
Completion: 18.8

Prompt: Recorded max response for OCC(CO)(CO)COCC(CO)(CO)CO , please?
Completion: -6.03
